System: MDA-MB-468
ASSAY DETAILS: Cytotoxicity against human MDA-MB-468 cells assessed as growth inhibition after 24 to 72 hrs by MTT assay
Assay type: functional, cell-based
RECORDED METRIC: IC50

>>> result("C=CCn1cc2c3[nH]c4ccccc4c3cc(C(=O)OC)[n+]2c1")
"> 30 µM"
>>> result("COC(=O)c1cc2c3ccccc3[nH]c2c2cn(C3CC3)c[n+]12")
"> 30 µM"
>>> result("COC(=O)c1cc2c3ccccc3[nH]c2c2cn(Cc3ccc(F)cc3)c[n+]12")
"> 30 µM"
